tested on: K562; assay: Antiproliferative activity against human K562 cells assessed as cell growth inhibition at 10 uM after 24 hrs by MTT assay; type: functional; details: K562, 24 h, read-out: GI
// reported inhibition of growth at 10 µM for each item listed
Write the answer as a number in %, unit excluded.

The following compounds have reported results that may help.
{"structureSmiles": "ClCCCc1cn(-c2cc3nnnn3c3ccccc23)nn1", "unitsText": "%", "obsValue": 35.2}
{"structureSmiles": "Cc1ccc(-c2cn(-c3cc4nnnn4c4ccccc34)nn2)cc1", "unitsText": "%", "obsValue": 44.1}
{"structureSmiles": "c1ccc(-c2cn(-c3cc4nnnn4c4ccccc34)nn2)cc1", "unitsText": "%", "obsValue": 29.9}
{"structureSmiles": "OCCCc1cn(-c2cc3nnnn3c3ccccc23)nn1", "unitsText": "%", "obsValue": 52.4}
{"structureSmiles": "CCCCc1cn(-c2cc3nnnn3c3ccccc23)nn1", "unitsText": "%", "obsValue": 34.1}
{"structureSmiles": "c1ccc(CCc2cn(-c3cc4nnnn4c4ccccc34)nn2)cc1", "unitsText": "%", "obsValue": 38.1}

(Q) Param item = `OCc1cn(-c2cc3nnnn3c3ccccc23)nn1` ; retrieve measured inhibition of growth at 10 µM.
(A) 36.9

(Q) Reported inhibition of growth at 10 µM for `CCCCCCc1cn(-c2cc3nnnn3c3ccccc23)nn1` : what is it?
(A) 37.4

FYI, the data here is from ChEMBL document CHEMBL2021838.
